assay: Food effect study (part A, high-fat meal); settings: human, plasma, po, 5 mg, t1/2, geometric LS mean, Ref, 5 mg fasted, n = 6
outcome_measure: half-life (h)
State just the number; it will be interpreted in h.

Challenge: Supply half-life value. Item: `NC[C@H]1OB(O)c2c(OCCO)ccc(Cl)c21`
Response given: 38.6

* * *

test: clinical; conditions: both, human, in vivo, po, 15 mg
outcome_measure: AUC(0-t) (µg·h/mL)
Return type: number; implicit unit µg·h/mL.

Challenge: Please give measured AUC(0-t) of the following entry: NC[C@H]1OB(O)c2c(OCCO)ccc(Cl)c21 [GSK3036656]
Response given: 3.25

* * *

assay: in vitro; type: in vitro ADME; settings: mouse, plasma
outcome_measure: fraction unbound
Form field (numeric): enter value without unit.

Challenge: Give fraction unbound for `NC[C@H]1OB(O)c2c(OCCO)ccc(Cl)c21`
Response given: 0.792

* * *

assay: Food effect study (part A, high-fat meal); conditions: human, plasma, po, 5 mg, t1/2, geometric LS mean, Test, 5 mg fed, n = 5
outcome_measure: half-life (h)
Entry rule: numbers only, all in h.

Challenge: Consider the compound `NC[C@H]1OB(O)c2c(OCCO)ccc(Cl)c21` . State its measured half-life.
Response given: 34.4

* * *

assay: clinical; settings: both, human, in vivo, po, 5 mg
outcome_measure: AUC(0-t) (ng·h/mL)
Dear colleague, please return just the value in ng·h/mL, with no unit written.

Challenge: Give the reported AUC(0-t) for this compound. `NC[C@H]1OB(O)c2c(OCCO)ccc(Cl)c21`
Response given: 771

* * *

assay: clinical; conditions: both, human, in vivo, po, 5 mg
outcome_measure: Tmax (h)
Could you give me the number in h? Just the number is fine.

Challenge: Return reported Tmax. Input compound: `NC[C@H]1OB(O)c2c(OCCO)ccc(Cl)c21`
Response given: 1.1

* * *

assay: clinical; conditions: human, in vivo, po, 5 mg, AUC(Ro), geometric LS mean, Ref
outcome_measure: AUC (ng·h/mL)
Response body: numeric value in ng·h/mL, unit text excluded.

Challenge: For the molecule NC[C@H]1OB(O)c2c(OCCO)ccc(Cl)c21 [GSK3036656] , report AUC.
Response given: 486

* * *

experiment: clinical; details: human, in vivo, po, 25 mg
outcome_measure: AUC(0-t)
The number alone won't do; follow it with the unit.

Challenge: For `NC[C@H]1OB(O)c2c(OCCO)ccc(Cl)c21` , write its AUC(0-t).
Response given: 5690 ng·h/mL

* * *

experiment: clinical; conditions: human, in vivo, po, 5 mg
outcome_measure: Tmax at 14 days
Give your result as the value with the unit written after it.

Challenge: Please look at this compound and report its Tmax at 14 days: `NC[C@H]1OB(O)c2c(OCCO)ccc(Cl)c21`
Response given: 48 min

* * *

assay: in vitro; type: in vitro ADME, humans; conditions: human, plasma
outcome_measure: fraction unbound
Answer using only a numeral; do not append any unit.

Challenge: Return value of fraction unbound for input NC[C@H]1OB(O)c2c(OCCO)ccc(Cl)c21 [GSK3036656] , no commentary.
Response given: 0.838

* * *

assay: clinical; details: both, human, in vivo, po, 5 mg
outcome_measure: AUC(0-inf) (ng·h/mL)
State the answer as a number, implicitly in ng·h/mL.

Challenge: Give AUC(0-inf) for the following compound: `NC[C@H]1OB(O)c2c(OCCO)ccc(Cl)c21`
Response given: 1400
